- TESTED ON: T1, HIS-tagged extracellular domain of canine PD-1
- T1 construct: also called canine PD-1 ECD-8HIS; PD-1ECD-HIS
- T1 chain: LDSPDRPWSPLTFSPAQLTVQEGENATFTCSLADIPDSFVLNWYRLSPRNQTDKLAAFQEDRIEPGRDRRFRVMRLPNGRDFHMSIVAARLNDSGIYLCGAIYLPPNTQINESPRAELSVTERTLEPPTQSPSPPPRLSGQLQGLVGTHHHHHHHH
- METHOD DESCRIPTION: ELISA on plate-coated HIS-tagged canine PD-1 ECD, two-fold dilutions of mAb, HRP goat anti-mouse IgG, TMB
EXPERIMENTAL ENDPOINT: binding result

BINDER	ASSAY VALUE
5G5 (antibody, V domains shown, Mouse anti-canine PD-1 mAb; also called mAb 5G5; copies: 2 + 2) VH: EVQLQQSVAELVRPGASVKLSCTVSGFNIKNTYMHWVKQRPEQGLEWIGRIDPANVNTKYAPKFQGKATITTDTSSNTAYMQLSSLTSEDTAIYYCVLIFYDYDGDIDVWGTGTKVTVSS VL: DIQMNQSPSSLSASLGDTITITCHASQNINVWLSWYQQKPGNIPKLLIYKASNLHTGVPSRFSGSGSGTDFTLTISSLQPEDIATYYCQQGQSYPLTFGAGTKLELK	binds

Data origin, for the record: patent US20240084004A1
